These data points were gathered from patent US20190060428A1.

Test Protocol: Short-term room temperature stability of Pool 3 mixed with Hiltonol (RP-HPLC)
Type: physicochemical
Test Conditions: Pool 3 + Hiltonol, 4 Hours RT
substances and their reported Main Peak
Form: value (number only, do not type unit).

Solved entries (count: 3):
Exercise: Field request: Main Peak | item: H-KLAWRGRISSSGCPSMTSPPSPMFGMTLHT-OH [CS6919]
Key: 7238.56

Exercise: Now this one: H-AHRQGEKQHLLPVFSRLALRLPWRHSVQL-OH [CS6941]
Key: 6676.54

Exercise: Next record, please: H-VAGLAASGLHGSAWLVPGEQPVSGPHHGKQ-OH [CS6931]
Key: 8523.53

---
Exercise: Given the entry H-AESAQRQGPNGGGEQSANEF-OH [CS7416] , report its measured Main Peak.
Key: 5669.85

Exercise: Repeat with H-SKRGVGAKTLLLPDPFLFWPCLEGTRRSL-OH [CS6934]
Key: 5842.22

----------
Test Protocol: pH of peptide solutions in DMSO/D5W, with succinate, and with Hiltonol
Assay type: physicochemical
Readout Label: pH of peptides in DMSO/D5W/5mM S. Succinate spike
Lab note: record just the number, no unit beside it.

# count of solved cases: 3
Exercise: Which pH of peptides in DMSO/D5W/5mM S. Succinate spike value is on record for H-LPVFIGNIAVNHAPVSLRPGLGLPPGAPPGTVP-OH [CS7438] ?
Key: 6.78

Exercise: And H-YLLPKTAVVLRCPALRVRKP-OH [CS7418] ?
Key: 6.76

Exercise: And then H-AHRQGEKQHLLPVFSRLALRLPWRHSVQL-OH [CS6941] , what is it?
Key: 6.49

Others:
Exercise: I have this substance here, H-AESAQRQGPLGGGEQSANEF-OH [CS7417] , and I need its recorded pH of peptides in DMSO/D5W/5mM S. Succinate spike.
Key: 6.28

Exercise: Also, H-VQLSIQDVIRRARLSTVPTAQRVALRSGWI-OH [CS7413] please.
Key: 6.73

Exercise: What do we get for H-IGALNPKRAAFFAEHYESWE-OH [CS7420] ?
Key: 6.38

Exercise: Entry H-SGQPAPEETVLFLGLLHGLLLILRRLRGG-OH [CS6937] please
Key: 6.51

Exercise: What about H-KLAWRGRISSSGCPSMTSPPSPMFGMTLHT-OH [CS6919] ?
Key: 6.74

Exercise: Then what about the substance H-SYDSVIRELLQKPNVRVVVL-OH [CS7425] ?
Key: 6.44

Exercise: Try H-LLTDRNTSGTTFTLLGVSDYPELQVPIPQAGLG-OH [CS7408] next.
Key: 6.31

Exercise: Moving on to the next substance: H-PLMQTELHQLVPEADPEEMA-OH [CS7430]
Key: 6.23

----------
# Lookup of reported Total Peak keyed by entry
Test Protocol: Short-term room temperature stability of Pool 3 mixed with Hiltonol (RP-HPLC)
Type: physicochemical
Test Conditions: T0 Pool 3 + Hiltonol, RP-HPLC

Exercise: Give its Total Peak value. Item: H-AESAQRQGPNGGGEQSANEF-OH [CS7416]
Key: 6132.4

Exercise: Follow-up entry: H-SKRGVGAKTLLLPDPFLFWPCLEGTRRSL-OH [CS6934]
Key: 6391.63

Exercise: How about this substance: H-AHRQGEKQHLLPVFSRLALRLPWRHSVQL-OH [CS6941]
Key: 7140.91

Further cases:
Exercise: I'd like to know its Total Peak. The substance in question is H-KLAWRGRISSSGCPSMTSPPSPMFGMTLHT-OH [CS6919]
Key: 9043

Exercise: Similarly, H-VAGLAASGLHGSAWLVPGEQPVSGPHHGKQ-OH [CS6931] ?
Key: 9213.42

----------
Test Protocol: Short-term room temperature stability of Pool 3 mixed with Hiltonol (RP-HPLC)
Assay type: physicochemical
Test Conditions: Pool 3 + Hiltonol, 4 Hours RT
Readout Label: % Impurity (%)
Please respond with the number in % and leave the unit unwritten.

Look over these answered cases.
Exercise: Param item = H-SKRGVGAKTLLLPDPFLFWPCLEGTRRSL-OH [CS6934] ; retrieve measured % Impurity.
Key: 3.06

Exercise: Same question, H-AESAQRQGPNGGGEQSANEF-OH [CS7416] this time
Key: 2.56

Exercise: Next substance: H-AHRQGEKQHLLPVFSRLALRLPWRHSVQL-OH [CS6941]
Key: 0

Attention now turns to another entry.
Exercise: // query % Impurity value for entry H-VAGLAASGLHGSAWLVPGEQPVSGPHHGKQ-OH [CS6931]
Key: 3.02

----------
Test Protocol: physchem
Test Conditions: pH 6
This listing pairs substances with measured solubility.

Exercise: Need solubility of "H-SLTEESGGAVAFFPGNLSTSSSA-OH" , thanks.
Key: > 2000 µg/mL

Exercise: Also, "H-KGASLDAGWGSPRWTTTRMTSASAGRSTRA-OH" please.
Key: > 2000 µg/mL

New cases:
Exercise: Which solubility is listed for "H-LGETMGQVTEKLQPTYMEET-OH" ?
Key: > 2000 µg/mL

Exercise: "H-FVGKLQRHPVAVDVLL-OH" , same question.
Key: > 2000 µg/mL

Exercise: Please answer likewise for "H-YPEPQNKEAFVHSQMYSTDYDQI-OH"
Key: > 2000 µg/mL

Exercise: One more substance: "H-KAHVEGDGVVEEIIRYHPFLYDRET-OH"
Key: < 2000 µg/mL

Exercise: Repeat with "H-GSTLSPVPWLPSEEFTLWSSLSPPG-OH"
Key: > 2000 µg/mL

Exercise: "H-HRPRPFSPGKQVSSAPLFMLDLYN-OH" , same question.
Key: > 2000 µg/mL

Exercise: What do you have for "H-TAQFAPSPGQPPALSPSYPGHRLPLQQG-OH" ?
Key: > 2000 µg/mL

Exercise: // next record "H-TTVTHERKQAKVVNPPIQEVGKGARK-OH"
Key: > 2000 µg/mL

Exercise: Would you mind doing "H-VTSPKASPVTFPAAAFPTASPANKD-OH" as well?
Key: > 2000 µg/mL

Exercise: What do we get for "H-PSTANYNSFSSAPMPQIPVASVTPT-OH" ?
Key: > 2000 µg/mL

Exercise: Next record, please: "H-LHFIMPEKFSFWEDFEE-OH"
Key: < 2000 µg/mL

Exercise: Same question, "H-PASAKSRREFDKIELAYRR-OH" this time
Key: > 2000 µg/mL

Exercise: For "H-PAHPSQGAVPPSRAAAEPHLKPSPSELQTA-OH" then?
Key: > 2000 µg/mL

Exercise: // query: "H-GSGALGAVGATKVPRNQDWL-OH"
Key: > 2000 µg/mL

Exercise: Record: "H-DKGHQFHVHPLLHSGDDLDP-OH"
Key: > 2000 µg/mL

----------
Test Protocol: physchem
Test Conditions: pH 6
Readout Label: solubility

Exercise: What measured solubility goes with "H-PAPPPAVPKEHPAPPAPPPASAPTP-OH" ?
Key: > 2000 µg/mL

Exercise: What would you report for "H-ALLQNVELRRNVLVSPTPLAN-OH" ?
Key: > 2000 µg/mL

Exercise: Next up: "H-VPRIAELMNKKLPSFGPYLE-OH"
Key: > 2000 µg/mL

----------
Test Protocol: Short-term room temperature stability of Pool 3 mixed with Hiltonol (RP-HPLC)
Type: physicochemical
Test Conditions: Pool 3 + Hiltonol, 6 Hours RT
Readout Label: % Impurity

Worked cases, % Impurity given:
Exercise: I would be grateful if you could share the reported % Impurity for H-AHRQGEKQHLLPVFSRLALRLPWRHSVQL-OH [CS6941] .
Key: 0%

Exercise: Would you kindly repeat that for H-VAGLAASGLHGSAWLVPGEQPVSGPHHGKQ-OH [CS6931] ?
Key: 3.21%

Exercise: Cool, now H-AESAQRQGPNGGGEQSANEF-OH [CS7416]
Key: 2.1%

Next:
Exercise: Consider the substance H-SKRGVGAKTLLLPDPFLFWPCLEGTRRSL-OH [CS6934] and give its measured % Impurity.
Key: 3.41%

----------
Recorded measurements of % Purity, one per entry
Test Protocol: Short-term room temperature stability of Pool 3 mixed with Hiltonol (RP-HPLC)
Type: physicochemical
Test Conditions: Pool 3 + Hiltonol, 4 Hours RT
Note: unit % is implicit; provide only the numeric part.

The cases that follow already have their % Purity on record.
Exercise: Look up % Purity for this substance: H-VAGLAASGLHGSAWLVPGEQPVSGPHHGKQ-OH [CS6931]
Key: 96.98

Exercise: Please give the result for H-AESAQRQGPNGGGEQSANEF-OH [CS7416] too.
Key: 97.44

Exercise: And for H-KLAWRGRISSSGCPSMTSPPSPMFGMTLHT-OH [CS6919] ?
Key: 82.91

Exercise: Then what about the substance H-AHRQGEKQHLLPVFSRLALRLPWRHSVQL-OH [CS6941] ?
Key: 100

Continuing:
Exercise: Item under review: H-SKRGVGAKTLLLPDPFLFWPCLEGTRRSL-OH [CS6934] . Reported % Purity?
Key: 96.94
